pKi: −log10 of the molar value.
Record: pKi reported on Human immunodeficiency virus type 1 protease (Human immunodeficiency virus 1).
measure: pKi

1) N#CN=C1N(Cc2cccc([N+](=O)[O-])c2)[C@H](Cc2ccccc2)[C@H](O)[C@@H](O)[C@@H](Cc2ccccc2)N1Cc1cccc([N+](=O)[O-])c1	7.05
2) N#CN=C1N(CC2CCC2)[C@H](Cc2ccccc2)[C@H](O)[C@@H](O)[C@@H](Cc2ccccc2)N1CC1CCC1	8.70
3) N#CN=C1N(Cc2ccc3ccccc3c2)[C@H](Cc2ccccc2)[C@H](O)[C@@H](O)[C@@H](Cc2ccccc2)N1Cc1ccc2ccccc2c1	7.66
4) CC(C)=CCN1C(=O)N(CC=C(C)C)[C@H](Cc2ccccc2)[C@H](O)[C@@H](O)[C@H]1Cc1ccccc1	8.80
5) CCCN1C(=NC#N)N(CCC)[C@H](Cc2ccccc2)[C@H](O)[C@@H](O)[C@H]1Cc1ccccc1	7.85
6) N#CN=C1N(Cc2ccc(O)cc2)[C@H](Cc2ccccc2)[C@H](O)[C@@H](O)[C@@H](Cc2ccccc2)N1Cc1ccc(O)cc1	8.59
7) N#CN=C1N(CC2CCCCC2)[C@H](Cc2ccccc2)[C@H](O)[C@@H](O)[C@@H](Cc2ccccc2)N1CC1CCCCC1	8.24

Ref: ChEMBL document CHEMBL1131343
